Where do the numbers come from? From patent US20240092922A1.

# Target or system: T1, monkey (Rhesus macaque) 4-1BB (r4-1BB) on transfected CHO cells (monkey (Rhesus macaque), UniProt Q07011 24-255 (human entry))
# T1 construct: also called rm4-1BB; CHO-r4-1BB
# T1 chain: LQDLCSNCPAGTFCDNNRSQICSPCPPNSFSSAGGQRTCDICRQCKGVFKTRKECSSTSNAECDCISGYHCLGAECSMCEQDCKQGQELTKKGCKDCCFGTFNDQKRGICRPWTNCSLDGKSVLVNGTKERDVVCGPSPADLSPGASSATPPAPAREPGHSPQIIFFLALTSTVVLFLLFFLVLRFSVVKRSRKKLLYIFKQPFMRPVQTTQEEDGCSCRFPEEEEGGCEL
# Procedure text: flow cytometry on transfected CHO cells;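 also: antibodies tested at 1 µg/ml on CHO cells for 30 min at 4 °C, binding detected with FITC- or PE-labeled anti-mouse IgG Fc secondary by flow cytometry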

Binder	binding result
45-4B9 (antibody, V domains shown, mouse antibody purified from ascites) VH: EVQLQQSGPELVKPGASVKMSCKASGYTFTTYVMYWVKQRPGQGLEWIGYINPYNDDIRYNEKFKGKATLTSDRSSSTAYMELSSLTSEDSAVYLCARQGGDYWGQGTILTVSS VL: DVQITQSPSYLAASPGETITVNCRASKNINKYLAWYQEKPGKTNKLLIYSGSTLQSGIPSRFSGSGSGTDFTLTISSLEPEDFAVYHCQQYNEYPLTFGAGTKLEMK	binds
54-8B11 (antibody, V domains shown, mouse antibody purified from ascites) VH: QIQLVQSGPELKKPGETVKISCKASKFTFTNYGMNWVKQAPGKALKWMGWINTYTGEPTYADDFKGRFDFSLETSATTAYLQINNLKNEDTATYFCARREYYPWVFVYWGQGTLVTVSA VL: ENVLTQSPAIMSASPGEKVTMTCSASSSVSYMHWYQQKSSTSPKLWIYDTSKLASGVPGRFSGSGSGNSYSLTISSMEAEDVATYYCFQGSGYPLTFGGGTKLEIK	binds
70-3F9 (antibody, V domains shown, mouse antibody purified from ascites) VH: QVQLQQPGAELVRPGASVKLSCKASGYTFTSYWINWVKQRPGQGLEWIGNIFPSDSYTNYNQKFKDRAKLTVDKSSSTAYMQLSSPTSEDSAVYYCTRFGSSGYPDYYTMEYWGQGTSVTVSS VL: DIQMTQSPASLSASVGETVTITCRASGNIDNYLAWYQQKQGKSPQLLVYNAKTLAEGVPSRFSGSGSGTEYSLKINSLQPEDFGSYHCQQYWTIPYTFGGGTKLEIK	binds
